The reported measurements were obtained from patent US9340577B2.

In this section, each of the sequences is paired with its reported IC50.
- Tested system: DRB1*0901 (Homo sapiens, UniProt P01903+P01911, A100R/A103E/D57H/D86V/F55Y/F60I/F76Y/I96F/K127E/L162R/M171V/P40D/Q125H/Q99R/R33Q/R42F/S133A/S66N/T210M/V115G/W38K/Y107V/Y59G/Y89S)
- Assay method text: biochemical
- Assay type: binding
No end group written: not given here.

| Residue codes | Measurement unit | Rel | IC50 |
| --- | --- | --- | --- |
| IWEVHMENESIYCPD [Peptide 90.0237] | µM | = | 5.49 |
| TGWFEVEAVIERRTG [Peptide 90.0075] | µM | > | 20 |
| VMAIFGVNPTVAEGF [Peptide 89.0080] | µM | = | 12.9 |
| WKLIRMECAIMYTAR [Peptide 90.0245] | µM | = | 4.87 |
| ETCMLIEPPKLRSSV [Peptide 89.0084] | µM | = | 5.12 |
| NTEVETQQMVQQVES [Peptide 89.0059] | µM | > | 20 |
| ELQMALETLSKSQYS [Peptide 89.0183] | µM | = | 0.204 |
| TRPRTLHELCEVLEE [Peptide 1543.42] | µM | > | 20 |
| DNDIVDDSEIAYKYA [Peptide 90.0037] | µM | > | 20 |
| DYVLDLQPEATDLHC [Peptide 1543.10] | µM | > | 20 |
| ITFLGALKSFLKGTP [Peptide 89.0034] | µM | = | 7.62 |
| ENSIQADTEAARALF [Peptide 90.0078] | µM | > | 20 |
| YKTLFVDVTSTYHWT [Peptide 90.0241] | µM | = | 2.23 |
| RLTVAKGLSTLLHVP [Peptide 89.0028] | µM | = | 0.399 |
| ELQMALKGLAQSKYN [Peptide 90.0005] | µM | = | 0.348 |
| IAYYYAQLADSNSNA [Peptide 89.0072] | µM | = | 3.09 |
| DSQIAFQYAQLADVD [Peptide 89.0130] | µM | > | 20 |
| NMSLLKHQSLRPDED [Peptide 68.0009] | µM | > | 20 |
| EYILDLHPEPTDLFC [Peptide 1543.51] | µM | > | 20 |
| FIHFIQGAVISFVNS [Peptide 89.0036] | µM | = | 0.137 |
| RFHNIMGRWTGRCSE [Peptide 1543.60] | µM | = | 8.86 |
| RHLDKKQRFHNIRGR [Peptide 1543.26] | µM | > | 20 |
| LTELYFEKGEYFVEM [Peptide 68.0153] | µM | > | 20 |
| MLAVFKDTYGLSFTD [Peptide 90.0050] | µM | = | 1.57 |
| FKYFKEDAAKYSKTQ [Peptide 90.0206] | µM | = | 1.7 |
| EVQIALESLSTTIYN [Peptide 90.0231] | µM | = | 0.406 |
